Numbers sourced from PubChem BioAssay (NCI).

Here, each record is paired with measured TGI data.
# Test system: SR leukemia
# Assay overview: NCI tumour cell line growth inhibition, 48 h
Measurement name: TGI

molecule="C=C1CCC2C3(C)COC(c4ccc(NC(C)=O)cc4)OC3CCC2(C)C1C/C=C1/C(=O)OCC1O (stereo unspecified)" assay_value="85.1 µM"
molecule=Cc1ccc(C(=O)N(C(C)C)C(C)C)cc1N=NN(C)C assay_value="> 100 µM"
molecule="OCC1OC(n2cnc3cccnc32)CC1O (stereo unspecified)" assay_value="> 100 µM"
molecule=O=C1c2ccccc2C(=O)c2c1ccc(C(Br)Br)c2[N+](=O)[O-] assay_value="1.75 µM"
molecule="COc1ccc(C2OC(=O)c3c2ccc2ccccc32)c(C)c1 (stereo unspecified)" assay_value="> 100 µM"
molecule=O=C(c1ccccc1)c1c(C(F)(F)F)n([O-])c2ccccc2[n+]1=O assay_value="0.413 µM"
molecule=COc1ccc(C(=O)c2cc(OC)c(OC)c(OC)c2)cc1OC(C)=O assay_value="> 75.2 µM"
molecule=COc1ccc(-c2nn(-c3cccc(Cl)c3)cc2C=C(C#N)C#N)cc1 assay_value="3.66 µM"
molecule="COP(=O)(OC)C(N)CCSC (stereo unspecified)" assay_value="> 100 µM"
molecule="CCOC(=O)c1nc2c3c(ncn2n1)Oc1c(c(-c2ccccc2)nn1-c1ccccc1)C3c1ccc(Cl)cc1 (stereo unspecified)" assay_value="> 100 µM"
molecule=COC(=O)[C@H](C)N1C(=O)N[C@@H](C(C)C)C1=O assay_value="> 100 µM"
